Values were extracted from patent US20110183978A1.

Tested on: Rhynchosporium secalis
assay: Example S: in vivo test on Rhynchosporium secalis (leaf scald in barley/protective)
measurement.context: 336 h, barley, protective, 1000 ppm active substance, assessed 14 days after inoculation, read-out: % Wirkungsgrad (activity level)
Could you please report measured pest or weed control at 1000 ppm for the items listed next?
Answers are plain numbers, in %.

Below are worked cases with known answers.
# compound, pest or weed control at 1000 ppm (%)
measured = [
    ("CCC(=O)Nc1cc(-c2cn(CC3CC3)nc2-c2ccc(F)cc2)ccn1", 100),
    ("CC(C)C(=O)Nc1cc(-c2cn(C(C)C)nc2-c2ccc(F)cc2)ccn1", 90),
]

Then there is this compound:
Tell me the measured pest or weed control at 1000 ppm of CCC(=O)Nc1cc(-c2cn(C(C)CC)nc2-c2ccc(F)cc2)ccn1 (stereo not drawn) , please.
100

----------
Tested on: Cochliobolus miyabeanus
assay: Example X: in vivo test on Cochliobolus miyabeanus (brown spot disease, rice/protective)
measurement.context: Bipolaris oryzae, 96 h, read-out: % Activity level
So I've got a bunch of compounds here, and I need their pest or weed control at 250 ppm values.
Give bare numbers, in %.

# chem.smiles, test.target, unit, pest or weed control at 250 ppm
records = [
    ("CC(C)C(=O)Nc1cc(-c2cn(C(C)C)nc2-c2ccc(F)cc2)ccn1", "Cochliobolus miyabeanus", "%", 93),
]

Each compound below has a recorded value; state its pest or weed control at 250 ppm.
1. CC(C)n1cc(-c2ccncc2)c(-c2ccc(F)cc2)n1
2. CCC(=O)Nc1cc(-c2cn(CC)nc2-c2ccc(F)cc2)ccn1
3. O=C(Nc1cc(-c2cn(CCCl)nc2-c2ccc(F)cc2)ccn1)C1CC1

[85, 90, 80]

Fill in pest or weed control at 250 ppm for each of the 2 compounds listed.
1. CC(C)n1cc(-c2ccnc(NC(=O)C3CC3)c2)c(-c2ccc(F)cc2)n1
2. CC(C)Cn1cc(-c2ccncc2)c(-c2ccc(F)cc2)n1

1. 80
2. 85

Record pest or weed control at 250 ppm for all entries; do not skip any.
1. COCC(=O)Nc1cc(-c2cn(C(C)C)nc2-c2ccc(F)cc2)ccn1
2. CCC(=O)Nc1cc(-c2cn(C(C)C)nc2-c2ccc(F)cc2)ccn1
3. O=C(Nc1cc(-c2cn(CC(F)F)nc2-c2ccc(F)cc2)ccn1)C1CC1

[85, 90, 85]

----------
assay: physchem
measurement.context: LogPA
Provide the recorded chromatographic logP for the entries that follow.
Answers are plain numbers.

# compound, value.type, measured
data = [
    ("CSCCn1cc(-c2ccnc(NC(=O)C(C)C)c2)c(-c2ccc(F)cc2)n1 [Compound 306]", "chromatographic logP", 2.44),
    ("CCn1cc(-c2ccnc(NC(=O)CC(C)C)c2)c(-c2ccc(F)cc2)n1 [Compound 339]", "chromatographic logP", 3.47),
    ("CC(C)Cn1cc(-c2ccnc(NC(C)C)n2)c(-c2ccc(F)cc2)n1 [Compound 174]", "chromatographic logP", 2.39),
    ("CC(C)n1cc(-c2ccnc(NC(=O)C3CC3)n2)c(-c2ccc(F)cc2)n1 [Compound 356]", "chromatographic logP", 2.49),
]

Give chromatographic logP for all compounds that follow.
1. CC(C)C(=O)Nc1cc(-c2cn(C3CC3)nc2-c2ccc(F)cc2)ccn1 [Compound 322]
2. CCC(=O)Nc1cc(-c2cn(CC)nc2-c2ccc(F)cc2)ccn1 [Compound 198]
3. Cc1csc2c(-c3cn(CC(C)C)nc3-c3ccc(F)cc3)ncnc12 [Compound 288]
4. CCOCCn1cc(-c2ccnc(NC(=O)C(C)C)c2)c(-c2ccc(F)cc2)n1 [Compound 328]
5. CC(C)C(=O)Nc1cc(-c2cn(CC3CC3)nc2-c2ccc(F)cc2)ccn1 [Compound 225]

1. 2.32
2. 1.82
3. 3.85
4. 2.32
5. 2.54
